# koff per record follows
- system: T1, recombinant human HER2 extracellular domain protein (human, UniProt P04626 23-652)
- T1 construct: range 23-652; Range is printed for the immunogen/panning protein; also called ErbB2; recombinant HER2 protein
- assay_details: BLI, Protein A capture
Give me the value, and tack the unit on after it.

binder="Hu2117HK-Mu21 (Fc fusion, name in Kabat numbering, scFv-hIgG1 Fc; not shown: human IgG1 Fc) scFv: EVQLVESGGGLVQPGGSLRLSCAASGFTYSSYGMSWVRQAPGKGLEWVASISGGGSYTKYPDSVKGRFTISRDNSKNTLYLQMNSLRAEDTAVYYCARDYAGFFDVWGQGTLVTVSSGGGGSGGGGSGGGGSDIQMTQSPSSLSASVGDRVTITCRSSQSLVHSTGNTYLHWYQQKPGKAPKLLIYKVSNRFSGVPSRFSGSGSGTDFTLTISSLQPEDFATYFCSQSTHVPYTFGQGTKVEIK" experimental_value="0.00056 s⁻¹"

### Prompt Entry Hu2117HK-Mu05 (Fc fusion, scFv-hIgG1 Fc; not shown: human IgG1 Fc) scFv: EVQLVESGGGLVQPGGSLRLSCAASGFTFSSYGMSWVRQAPGKGLEWVASISGGGSYTKYPDSVKGRFTISRDNSKNTLYLQMNSLRAEDTAVYYCARDYAGFFDVWGQGTLVTVSSGGGGSGGGGSGGGGSDIQMTQSPSSLSASVGDRVTITCRSSQSLVHSNGNTYLHWYQQKPGKAPKLLIYKVSNRFSGVPSRFSGSGSGTDFTLTISSLQPEDFATYFCSQSTHVPYTFGQGTKVEIK has what koff?
### Response 0.000529 s⁻¹
